Test Name: Stability of pure lycopene isomers in n-hexane during storage at room temperature
Assay type: physicochemical
Run Conditions: n-hexane, room temperature, absence of light, 33 days
This section presents molecules with their documented concentration (% of total isomers) 5-Z values.

A selection of reference data follows.
| Smiles Data | Recorded Value |
| --- | --- |
| CC(C)=CCC\C(C)=C/C=C/C(C)=C/C=C/C(C)=C/C=C/C=C(C)/C=C/C=C(C)/C=C/C=C(\C)CCC=C(C)C | 53.5 % of total isomers |
| CC(C)=CCC/C(C)=C/C=C/C(C)=C\C=C\C(C)=C\C=C\C=C(C)\C=C\C=C(C)\C=C\C=C(/C)CCC=C(C)C | 4.1 % of total isomers |
| CC(C)=CCC/C(C)=C/C=C/C(C)=C/C=C/C(C)=C\C=C\C=C(C)\C=C\C=C(C)\C=C\C=C(/C)CCC=C(C)C | 11.7 % of total isomers |

Continue with the molecule presented below.
Lookup: Complete the entry with concentration (% of total isomers) 5-Z for `CC(C)=CCC/C(C)=C/C=C/C(C)=C/C=C/C(C)=C/C=C/C=C(C)/C=C/C=C(C)/C=C/C=C(\C)CCC=C(C)C`
Found: 13.4 % of total isomers

====

Test Name: Stability of pure lycopene isomers in n-hexane during storage at room temperature
Format: physicochemical
Run Conditions: n-hexane, room temperature, absence of light, 2 days
Experimental Readout: concentration (% of total isomers) x-Z

A selection of reference data follows.
| Molecule | concentration (% of total isomers) x-Z |
| --- | --- |
| CC(C)=CCC/C(C)=C/C=C/C(C)=C/C=C/C(C)=C\C=C\C=C(C)\C=C\C=C(C)\C=C\C=C(/C)CCC=C(C)C [13-Z lycopene] | 1.5 % of total isomers |
| CC(C)=CCC/C(C)=C/C=C/C(C)=C\C=C\C(C)=C\C=C\C=C(C)\C=C\C=C(C)\C=C\C=C(/C)CCC=C(C)C [9-Z lycopene] | 5.9 % of total isomers |
| CC(C)=CCC/C(C)=C/C=C/C(C)=C/C=C/C(C)=C/C=C/C=C(C)/C=C/C=C(C)/C=C/C=C(\C)CCC=C(C)C [all-E lycopene] | 3.0 % of total isomers |

Continue with the molecule presented below.
Lookup: Complete the entry with concentration (% of total isomers) x-Z for CC(C)=CCC\C(C)=C/C=C/C(C)=C/C=C/C(C)=C/C=C/C=C(C)/C=C/C=C(C)/C=C/C=C(\C)CCC=C(C)C [5-Z lycopene]
Found: 20.6 % of total isomers

====

This section presents compounds with their documented concentration (% of total isomers) 5-Z values.
Test Name: Stability of pure lycopene isomers in n-hexane during storage at room temperature
Assay type: physicochemical
Run Conditions: n-hexane, room temperature, absence of light, 5 days

| Smiles Data | concentration (% of total isomers) 5-Z |
| --- | --- |
| CC(C)=CCC\C(C)=C/C=C/C(C)=C/C=C/C(C)=C/C=C/C=C(C)/C=C/C=C(C)/C=C/C=C(\C)CCC=C(C)C | 68.4 % of total isomers |
| CC(C)=CCC/C(C)=C/C=C/C(C)=C/C=C/C(C)=C\C=C\C=C(C)\C=C\C=C(C)\C=C\C=C(/C)CCC=C(C)C | 1.9 % of total isomers |
| CC(C)=CCC/C(C)=C/C=C/C(C)=C/C=C/C(C)=C/C=C/C=C(C)/C=C/C=C(C)/C=C/C=C(\C)CCC=C(C)C | 3.8 % of total isomers |

Continue with the compound presented below.
Lookup: Complete the entry with concentration (% of total isomers) 5-Z for `CC(C)=CCC/C(C)=C/C=C/C(C)=C\C=C\C(C)=C\C=C\C=C(C)\C=C\C=C(C)\C=C\C=C(/C)CCC=C(C)C`
Found: 1.5 % of total isomers

Data origin, for the record: patent US8216619B2
